Target: T1, human TIGIT on cells (human, UniProt Q495A1 22-141)
T1 construct: also called Expi293 human TIGIT over-expressing cells
T1 sequence: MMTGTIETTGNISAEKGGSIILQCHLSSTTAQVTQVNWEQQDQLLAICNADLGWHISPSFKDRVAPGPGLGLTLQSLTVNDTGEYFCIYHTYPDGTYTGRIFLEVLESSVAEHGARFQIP
Assay: FACS blocking: Expi293 human TIGIT cells pre-incubated with mAb, then human PVR-m2aFc; lower gMFI = more blocking
Entries annotated with measured gMFI of bound PVR-m2aFc at 1.3 nM mAb
parameter: gMFI of bound PVR-m2aFc at 1.3 nM mAb

INSERT INTO measurements (binder, measuredvalue) VALUES
  ('CPA.9.059 hIgG4 (antibody, V domains shown, phage-derived anti-TIGIT, human IgG4; also called CPA.9.059-H4) VH: EVQLVETGGGLIQPGGSLRLSCAASGFTVSSNYMSWVRQAPGKGLEWVSVIYSGGSTYYADSVKGRFTISRDNSKNTLYLQMNSLRAEDTAVYYCARGARYSYGQYPYWGQGTLVTVSS VL: DIQLTQSPSFLSASVGDRVTITCRASHDISSLFSWYQQKPGKAPKLLIYAASTLQTGVPSRFSGSASGTEFTLTISSLQPEDFATYYCLQLDSFPTWTFGQGTKVEIKR', 262),
  ('BM26 hIgG4 (antibody, V domains shown, benchmark anti-human TIGIT antibody, human IgG4 with S241P; also called BM26-H4; WO2016/028656A1 Clone 3106 as hIgG4) VH: EVQLQQSGPELVKPGSSVKMSCKASGYTFSSYVMHWVKQKPGQGLEWIGYIDPYNDGAKYNEKFKGKATLTSDKSSSTAYMELSSLTSEDSAVYYCARGGPYGWYFDVWGAGTTVTVSS VL: DIQMTQSPASLSASVGETVTITCRASEHIYSYLSWYQQKQGKSPQLLVYNAKTLAEGVPSRFSGSGSGTQFSLKINSLQPEDFGTYYCQHHFGSPLTFGAGTTLELKR', 401),
  ('CPA.9.049 hIgG4 (antibody, V domains shown, phage-derived anti-TIGIT, human IgG4; also called CPA.9.049-H4) VH: EVQLVETGGGLIQPGRSLRLSCAASGFTFSSYAMHWVRQAPGKGLEWVAVISYDGSNKYYADSVKGRFTISRDNSKNTLYLQMNSLRAEDTAVYYCARDPLPLHYYGMDVWGQGTTVTVSS VL: QSALTQPRSASGNPGQRVTISCSGSSSNMGRRPVNWYQQIPGTAPKLLIYSQNQRPSGVPDRFSGSQSGTSASLTISGLQSEDEAEYFCAVWDDSLFSLLLGGGTQLAVLG', 276),
  ('CPA.9.027 hIgG4 (antibody, V domains shown, phage-derived anti-TIGIT, human IgG4; also called CPA.9.027-H4) VH: EVQLVETGGGLIQPGRSLRLSCAASGFTFSSYAMHWVRQAPGKGLEWVAVISYDGSNKYYADSVKGRFTISRDNSKNTLYLQMNSLRAEDTAVYYCARDPLPLHYYGMDVWGQGTTVTVSS VL: QSALTQPRSASGNPGQRVTISCSGSSSNMGRRPVNWYQQIPGTAPKLLIYSQNQRPSGVPDRFSGSQSGTSASLTISGLQSEDEAEYFCAVWDDSLSSLQLGGGTQLAVLG', 253);
